Tested on: SK-MEL-2 melanoma
Assay: NCI tumour cell line growth inhibition, 48 h
Measured TGI, listed per entry.
measured_endpoint: TGI (µM)

>>> numeric_readout("Clc1ccc(C2=C(c3ccccc3)C(c3ccc(Cl)cc3)N3C(=N[C@H]4CCCC[C@@H]43)N2)cc1 (some centres undefined)")
29.9
>>> numeric_readout("CC(=O)OC1CC2C(C)(C)C(=O)C=C[C@]2(C)C2CCC3(C)C(c4ccoc4)[C@@H](O)[C@H]4O[C@]43[C@]12C (some centres undefined)")
39.6
>>> numeric_readout("C[C@@H](CO)C1=CC(C#C[Si](C)(C)C)N(C(=O)Oc2ccccc2)c2ccccc21 (some centres undefined)")
35.3
>>> numeric_readout("O=C(CN1C(=O)S/C(=C\\C(Cl)=C\\c2ccccc2)C1=O)NCCc1ccc(O)cc1")
7.74
>>> numeric_readout("O=C1N=NC(=O)N1c1cc(C(F)(F)F)cc(C(F)(F)F)c1")
5.57
>>> numeric_readout("COc1cc(/C=C2\\C(=O)N(c3ccccc3)c3ccccc32)cc(OC)c1OC")
30.7
